GI50: recorded values
System: A549
Assay info: NCI tumour cell line growth inhibition, 48 h
Calls of active or inactive are those of the source. Rule as the data show it: active = GI50 up to about 1.1 µM and inactive = higher.

Ask: Please tell me: GI50 of COc1ccc2c(CCNC(=O)/C=C/c3ccccc3)c(C(C)=O)[nH]c2c1[N+](=O)[O-] , system A549?
Reply: 8.05 µM (inactive)

Ask: Please tell me: GI50 of NC1=NN(c2ccccc2)C(=O)C1C(=O)C(=O)Nc1ccc(Cl)c(Cl)c1 (centres undefined) , system A549?
Reply: > 100 µM (inactive)

Ask: Please tell me: GI50 of CC(=O)N/C(=C\c1ccccc1/C=C(\NC(C)=O)c1nc2cc(C)c(C)cc2[nH]1)c1nc2cc(C)c(C)cc2[nH]1 , system A549?
Reply: 28 µM (inactive)

New cases:
Ask: Please tell me: GI50 of O=C1CC(=O)NC(NN2C(=O)/C(=C/c3ccccc3)N=C2c2ccccc2)=N1 , system A549?
Reply: > 100 µM (inactive)

Ask: Please tell me: GI50 of O=C(Nc1ccccc1-c1nc2ccccc2[nH]c1=O)c1ccccc1 , system A549?
Reply: 25.9 µM (inactive)

Ask: Please tell me: GI50 of O=C(CCC(NC(=O)OCc1ccccc1)C(=O)OCc1ccccc1)Nc1ccc(OCc2ccccc2)cc1 (centres undefined) , system A549?
Reply: 19.3 µM (inactive)

Ask: Please tell me: GI50 of CC1=C(Cl)C[C@@H](/C(C)=C\Cl)O[C@@]1(O)C(Br)Br , system A549?
Reply: 22 µM (inactive)

Ask: Please tell me: GI50 of Cc1[nH]c2ncn3nc(C(Cl)(Cl)Cl)nc3c2c1Cc1ccccc1 , system A549?
Reply: > 100 µM (inactive)

Ask: Please tell me: GI50 of CCOc1ccc2c(c1)[n+]([O-])c(-c1ccc(Br)cc1)c(N)[n+]2[O-] , system A549?
Reply: 59.6 µM (inactive)
